assayed.system: Focal adhesion kinase 1 (Homo sapiens)
test.details: small-molecule microarray binders of FAK, primary screen, biochemical, 635/667 nm fluorescence, BSA, DTT (AID 1130);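 further: composite of spot emission at 667 nm and signal to noise over triplicate slides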
applied.conditions: PTK2 binding, 635 nm fluorescence, higher = more signal
metric.name: composite z-score

{"molecule": "C=C(/C=C\\CNS(=O)(=O)c1ccc(C)cc1)[C@H](O)[C@H]1CCCN1S(=O)(=O)c1ccccc1[N+](=O)[O-]", "metric.name": "composite z-score", "result.value": 0.445}
{"molecule": "COCCOC(=O)N1C(=O)[C@@]2(c3cc(C#CCNC(N)=O)ccc31)[C@H](C(N)=O)[C@H]1C(=O)O[C@H](c3ccccc3)[C@H](c3ccccc3)N1[C@@H]2c1ccc(O)cc1", "metric.name": "composite z-score", "result.value": -0.284}
{"molecule": "C=C(CCCC)/C(=C/C[C@@H](OC(C)=O)c1ccc(OCCO)cc1)c1cc(C(=O)OC)ccc1OC", "metric.name": "composite z-score", "result.value": 0.304}
{"molecule": "COc1ccc(CCNC(=O)[C@@]2(c3ccc([N+](=O)[O-])cc3)CC(=O)N(C3CCCCC3)[C@@H]2c2ccc(CO)cc2I)cc1", "metric.name": "composite z-score", "result.value": 0.338}
{"molecule": "CCCCN1CC=CC23O[C@@H]4/C=C\\CCC(C)OC(=O)C4[C@H]2C(=O)N(CCO)[C@@H]3C1=O (some centres undefined)", "metric.name": "composite z-score", "result.value": 0.548}
{"molecule": "COC(=O)[C@@]1(Cc2ccc(F)cc2)[C@@H]2C(=CC(=O)[C@H]2CC(=O)C(=O)N2CCCC2)CN1C(=O)c1ccccc1", "metric.name": "composite z-score", "result.value": 0.348}
{"molecule": "COCCCNC(=O)[C@@]1(Cc2ccccc2I)c2ccccc2C(=O)N(Cc2ccccc2C(F)(F)F)[C@H]1c1ccc(CO)cc1", "metric.name": "composite z-score", "result.value": -0.0483}
{"molecule": "C=CCOC(=O)[C@H]1[C@@H]2C(=O)O[C@@H](c3ccccc3)[C@@H](c3ccccc3)N2[C@@H](c2ccc(OCCOC(=O)[C@@H]3C[C@@H]4C(=O)N[C@@H](Cc5ccccc5)C(=O)N4[C@@H]3c3ccc(O)cc3)cc2)[C@]12C(=O)Nc1ccc(I)cc12", "metric.name": "composite z-score", "result.value": 0.307}
{"molecule": "C=CC[C@]1(C(N)=O)N=C(c2ccc(OCCCO)cc2)O[C@H]1c1ccccc1N=[N+]=[N-]", "metric.name": "composite z-score", "result.value": -0.336}
{"molecule": "C=CC[C@]1(C(=O)NCC(O)CO)N=C(c2ccc(OCCCO)cc2)O[C@H]1c1ccccc1CN=[N+]=[N-] (some centres undefined)", "metric.name": "composite z-score", "result.value": -0.209}
{"molecule": "O=C/C=C/c1ccc(-c2ccccc2)cc1", "metric.name": "composite z-score", "result.value": -0.164}
{"molecule": "CCCCC(=C=CC[C@H](O)c1cccc(OCCO)c1)C[C@H](O)c1cc(Cl)cc(Cl)c1O", "metric.name": "composite z-score", "result.value": -0.0043}
{"molecule": "COc1ccc([Si](C)(C)[C@H]2[C@H](CC(=O)N(CCO)Cc3ccccc3)O[C@@]3(C(=O)N(c4ccccc4)c4ccccc43)[C@@H]2C)cc1", "metric.name": "composite z-score", "result.value": 0.207}
{"molecule": "C=CCNC(=O)[C@H]1[C@@H]2C(=O)O[C@@H](c3ccccc3)[C@@H](c3ccccc3)N2[C@@H](c2ccc(O)cc2)[C@]12C(=O)N(C(=O)OCCOC)c1ccc(C#Cc3ccc(OC)cc3)cc12", "metric.name": "composite z-score", "result.value": 0.319}
